biological target: "Elastikine" human IL-23 (single chain FLAG-tag:GLU-tag:human p40:elasti-linker:human p19, expressed in 293T … (human, UniProt P29460 23-328)); assay: KinExA, solution equilibrium
Sequence (P29460 other isoform, or with tags, fused parts or gaps): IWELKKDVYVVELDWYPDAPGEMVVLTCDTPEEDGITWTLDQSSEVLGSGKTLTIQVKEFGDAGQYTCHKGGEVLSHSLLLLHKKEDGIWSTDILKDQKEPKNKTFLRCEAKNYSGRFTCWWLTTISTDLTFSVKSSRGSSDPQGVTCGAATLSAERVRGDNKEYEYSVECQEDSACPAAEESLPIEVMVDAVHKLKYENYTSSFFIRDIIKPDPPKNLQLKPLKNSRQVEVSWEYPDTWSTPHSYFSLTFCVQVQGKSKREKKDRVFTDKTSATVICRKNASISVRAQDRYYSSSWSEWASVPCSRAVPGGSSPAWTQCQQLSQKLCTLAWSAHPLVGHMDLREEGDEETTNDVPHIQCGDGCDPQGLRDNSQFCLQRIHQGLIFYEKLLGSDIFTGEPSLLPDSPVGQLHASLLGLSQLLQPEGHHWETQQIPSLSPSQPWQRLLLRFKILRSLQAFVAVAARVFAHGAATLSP
Each record here notes measured Kd.
Report as a plain number; the unit pM is understood.

mouse anti-human IL-23p19 antibody 35F12 (antibody, V domains shown, also called m35F12) VH: QVQLQQPGAELMRPGASVRLSCKASGYSFTTSWMNWVKQRPGQGLEWIGMIHPSDSETRLNQNFKDKATLTVDRSSSTAYMQLNSPTSEDSAVYYCARGMITAPSVYWGQGTLVTVSA VL: DIVLTQSPASLAVSLGQRATISCRASKSVSTSAYSYFHWYQQKPGQPPKLLIYLASNLESGVPARFSGSGSGTDFTLNIHPVEEGDAATYYCQHSRELPWTFGGGTKLEITR: 53

[ask] Given mouse anti-human IL-23p19 antibody 3D7 (antibody, V domains shown, also called m3D7) VH: QVQLQQSGPELVKPGASVKISCKASGYSFTSYYIHWVKQRPGQGLEWIGWIFPGSGNTKYNEKFKGKATLTADTSSTTAYMQLSSLTSEASAVYFCAREGLHYFGLYAMDYWGHGTSVTVSS VL: DIQMTQTTSSLSASLGDRVTISCSASQGISNYLNWFQQKPDGTVKLLIYYTSSLHSGVPSRFSGSGSGTDYSLTISNLEPEDIATYYCQQYSKLPYTFGGGTKLEIKR , state its recorded Kd.
[reply] 0.84

Just for reference, patent US20130039916A1 is where these values come from.
